subject.of.test: OsSMF1 (Oryza sativa, UniProt Q6ZLB0 1-436)
Sequence: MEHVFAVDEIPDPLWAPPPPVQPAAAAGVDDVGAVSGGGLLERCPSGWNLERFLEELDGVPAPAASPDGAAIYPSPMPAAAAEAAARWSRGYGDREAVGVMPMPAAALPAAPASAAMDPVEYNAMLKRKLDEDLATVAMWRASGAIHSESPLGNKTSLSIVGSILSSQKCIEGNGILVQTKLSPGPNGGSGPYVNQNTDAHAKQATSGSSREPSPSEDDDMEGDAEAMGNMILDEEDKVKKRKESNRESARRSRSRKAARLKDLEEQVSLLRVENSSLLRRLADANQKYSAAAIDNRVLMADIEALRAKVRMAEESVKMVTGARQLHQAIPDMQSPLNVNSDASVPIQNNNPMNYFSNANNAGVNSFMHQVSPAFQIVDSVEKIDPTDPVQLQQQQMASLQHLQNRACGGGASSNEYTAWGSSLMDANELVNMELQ
method.description: protein-binding microarray (RPBM); PBS, 2% BSA, 51.3 ng/ul salmon testes DNA, 50 uM zinc acetate, 200 nM TF, 25 C, 1 h; high values mean tight binding
study.conditions: protein: recombinant; tags: N-terminal polyhistidine and DsRed monomer fusion (pET32a); chain copies: 2; label: CyDye5-dUTP incorporated in the synthesized complementary strand; 3' TTTTT single-stranded linker to array surface; dsDNA, one strand shown
Whole data set: some 39,000 sequences, median “fluorescence intensity (a.u.)” near 4,300, cut for the highest 2% near 39,000. The full list was thinned out, with the highest values kept by preference.
Could you please report measured binding signal for the items listed next?

Short answer for `TCCCTCCCTCCGCCGCGCCACGCCCACCCACGCATCCATCCGGAGTCACCTAGTGCAG` : binding signal was 4110 fluorescence intensity (a.u.)

Short answer for `CGGATCGAATTGCCACGTAAGCGGCACGTCAGTGCCATGTCGGAGTCACCTAGTGCAG` : binding signal was 20000 fluorescence intensity (a.u.)

Short answer for `TCTCTTCCCCTCTCCGCGCCGCCCTCCGCCCCGCCCGCGGCGGAGTCACCTAGTGCAG` : binding signal was 3270 fluorescence intensity (a.u.)

Short answer for `ATGCATCTAAGCATATTAGCTATATACCACATCATTTTCACGGAGTCACCTAGTGCAG` : binding signal was 4780 fluorescence intensity (a.u.)

Short answer for `CCCTTACACCGCCCTGTGAACAGTCACTGACAATCCTGGCCGGAGTCACCTAGTGCAG` : binding signal was 4330 fluorescence intensity (a.u.)

Short answer for `ACATCCACAACCATCTCCACCTCACCTCGTCCATCGTCTCCGGAGTCACCTAGTGCAG` : binding signal was 6010 fluorescence intensity (a.u.)

Short answer for `CTCTGGCGATGTGGCGTCTGGTCAAATTCATTGTCTCTACCGGAGTCACCTAGTGCAG` : binding signal was 47900 fluorescence intensity (a.u.)

* * *

subject.of.test: OsSMF1 (Oryza sativa, UniProt Q6ZLB0 1-436)
Sequence: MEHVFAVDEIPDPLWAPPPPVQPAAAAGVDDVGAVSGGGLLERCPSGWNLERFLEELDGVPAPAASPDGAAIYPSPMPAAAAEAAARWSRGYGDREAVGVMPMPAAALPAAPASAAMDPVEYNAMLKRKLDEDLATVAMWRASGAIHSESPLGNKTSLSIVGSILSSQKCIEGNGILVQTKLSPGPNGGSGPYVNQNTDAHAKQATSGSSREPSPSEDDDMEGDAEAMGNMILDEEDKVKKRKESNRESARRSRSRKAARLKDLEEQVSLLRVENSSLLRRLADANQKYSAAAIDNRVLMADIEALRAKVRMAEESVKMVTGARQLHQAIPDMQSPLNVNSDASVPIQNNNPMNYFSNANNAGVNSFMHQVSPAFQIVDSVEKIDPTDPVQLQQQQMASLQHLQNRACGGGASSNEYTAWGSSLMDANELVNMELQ
method.description: protein-binding microarray (RPBM); PBS, 2% BSA, 51.3 ng/ul salmon testes DNA, 50 uM zinc acetate, 200 nM TF, 25 C, 1 h; high values mean tight binding
study.conditions: protein: recombinant; tags: N-terminal polyhistidine and DsRed monomer fusion (pET32a); chain copies: 2; label: CyDye5-dUTP incorporated in the synthesized complementary strand; 3' TTTTT single-stranded linker to array surface; dsDNA, one strand shown
In all, about 39,000 sequences were measured (“fluorescence intensity (a.u.)”: median about 4,300, highest 2% from about 39,000 on). Shown is part of a subset that was picked to be rich in the highest values.
Could you please report measured binding signal for the items listed next?

Here `TAACAAATAACCTTAAGTCCTTAACAAATAATAAGTGCACCGGAGTCACCTAGTGCAG` was tested on OsSMF1 (Oryza sativa, UniProt Q6ZLB0 1-436), and its binding signal came to 3190 fluorescence intensity (a.u.)

Here `ACGGTCACGGTCCGGCCGCTCTACACGTACGTAGTACGTGCGGAGTCACCTAGTGCAG` was tested on OsSMF1 (Oryza sativa, UniProt Q6ZLB0 1-436), and its binding signal came to 25100 fluorescence intensity (a.u.)

Here `TTTGCCTACTCATCACCACATGTATAAAGTGTAAACTTTACGGAGTCACCTAGTGCAG` was tested on OsSMF1 (Oryza sativa, UniProt Q6ZLB0 1-436), and its binding signal came to 5240 fluorescence intensity (a.u.)

Here `GCTCCCTCGACGACCTCGTCAAGTCCCTCCGCGCCGACCCCGGAGTCACCTAGTGCAG` was tested on OsSMF1 (Oryza sativa, UniProt Q6ZLB0 1-436), and its binding signal came to 4170 fluorescence intensity (a.u.)

Here `CCACCACGTACAGTGCTTTCCTAGGCAGAAGCCCACTATCCGGAGTCACCTAGTGCAG` was tested on OsSMF1 (Oryza sativa, UniProt Q6ZLB0 1-436), and its binding signal came to 3490 fluorescence intensity (a.u.)

Here `ATCCACGAGGGCAAGCAAGCAAGCAAGCTCCACCTCTCTGCGGAGTCACCTAGTGCAG` was tested on OsSMF1 (Oryza sativa, UniProt Q6ZLB0 1-436), and its binding signal came to 3220 fluorescence intensity (a.u.)

Here `CTCGGGGTTAAGCAGAGGTTATCGTCCCCGCCGCAGGTTACGGAGTCACCTAGTGCAG` was tested on OsSMF1 (Oryza sativa, UniProt Q6ZLB0 1-436), and its binding signal came to 4020 fluorescence intensity (a.u.)

Here `CCACAAACATGCAAGACCAAATTCAACTTCTACAAGTTGTCGGAGTCACCTAGTGCAG` was tested on OsSMF1 (Oryza sativa, UniProt Q6ZLB0 1-436), and its binding signal came to 13900 fluorescence intensity (a.u.)

Here `GGTCAAGAGCGCATCCAGCATGTCGTCGTGTACCTGACCGCGGAGTCACCTAGTGCAG` was tested on OsSMF1 (Oryza sativa, UniProt Q6ZLB0 1-436), and its binding signal came to 3720 fluorescence intensity (a.u.)

Here `CCAGTACATTTTGTACTACTACTTCGAACGGGCATGGTCGCGGAGTCACCTAGTGCAG` was tested on OsSMF1 (Oryza sativa, UniProt Q6ZLB0 1-436), and its binding signal came to 29700 fluorescence intensity (a.u.)

Here `CCCACCATTGCCGCCGTGTCCGGCAACCTAACGAACCTCGCGGAGTCACCTAGTGCAG` was tested on OsSMF1 (Oryza sativa, UniProt Q6ZLB0 1-436), and its binding signal came to 4100 fluorescence intensity (a.u.)

Here `TTTTAGGTAGAATGGTCCTGTTGGATCATCATATCAATGACGGAGTCACCTAGTGCAG` was tested on OsSMF1 (Oryza sativa, UniProt Q6ZLB0 1-436), and its binding signal came to 43400 fluorescence intensity (a.u.)

Here `CTCTAAATTTGTGCAGATGTGTCACCTAGATCCCTGAACTCGGAGTCACCTAGTGCAG` was tested on OsSMF1 (Oryza sativa, UniProt Q6ZLB0 1-436), and its binding signal came to 4340 fluorescence intensity (a.u.)

Here `AAGATCTGTATGCCTCATGAGGGTTGGTGTGTAATACTCCCGGAGTCACCTAGTGCAG` was tested on OsSMF1 (Oryza sativa, UniProt Q6ZLB0 1-436), and its binding signal came to 3890 fluorescence intensity (a.u.)

Here `AGTTTCCGAGAGCGAGCGAGAGAGAGAGAGAGAGAGAGAGCGGAGTCACCTAGTGCAG` was tested on OsSMF1 (Oryza sativa, UniProt Q6ZLB0 1-436), and its binding signal came to 3220 fluorescence intensity (a.u.)

Here `AGAGCAAGACAAGATGGTTAGTTCTCACACTTCAGATTGTCGGAGTCACCTAGTGCAG` was tested on OsSMF1 (Oryza sativa, UniProt Q6ZLB0 1-436), and its binding signal came to 41400 fluorescence intensity (a.u.)

Here `AATATACAACACTATATTATTAATGCAGTCCAATCGATATCGGAGTCACCTAGTGCAG` was tested on OsSMF1 (Oryza sativa, UniProt Q6ZLB0 1-436), and its binding signal came to 37000 fluorescence intensity (a.u.)

Here `TCCACATGCTAATTTGTGGTGTCAGATACCTGAATACTCCCGGAGTCACCTAGTGCAG` was tested on OsSMF1 (Oryza sativa, UniProt Q6ZLB0 1-436), and its binding signal came to 41400 fluorescence intensity (a.u.)

Here `TATCCATGGTGTTTAACAATATATCACTGGATACACGTGTCGGAGTCACCTAGTGCAG` was tested on OsSMF1 (Oryza sativa, UniProt Q6ZLB0 1-436), and its binding signal came to 9700 fluorescence intensity (a.u.)

Here `TGGGTGAGAGTTTGAACCCGAACATATGACACATCTATGTCGGAGTCACCTAGTGCAG` was tested on OsSMF1 (Oryza sativa, UniProt Q6ZLB0 1-436), and its binding signal came to 3270 fluorescence intensity (a.u.)

Here `CCCAGCTGTCTTTCCTCCAGGTCACCTGACAAATGTCACTCGGAGTCACCTAGTGCAG` was tested on OsSMF1 (Oryza sativa, UniProt Q6ZLB0 1-436), and its binding signal came to 3950 fluorescence intensity (a.u.)

Here `CAAATAGAACATAGCCATACGAAATGACTCACTAACCTCTCGGAGTCACCTAGTGCAG` was tested on OsSMF1 (Oryza sativa, UniProt Q6ZLB0 1-436), and its binding signal came to 4910 fluorescence intensity (a.u.)

Here `TCTCCCTCTACCTCGACGTCATCAACCTCTTCCTCTCCCTCGGAGTCACCTAGTGCAG` was tested on OsSMF1 (Oryza sativa, UniProt Q6ZLB0 1-436), and its binding signal came to 11000 fluorescence intensity (a.u.)

Here `AGACACTTTTGCAGGGATTGCTCAGACTTAGTTTCAGAGTCGGAGTCACCTAGTGCAG` was tested on OsSMF1 (Oryza sativa, UniProt Q6ZLB0 1-436), and its binding signal came to 3940 fluorescence intensity (a.u.)

Here `CTCCGCAGTCGTAGGCCCACGCGAACCATTCCGTGTGCAACGGAGTCACCTAGTGCAG` was tested on OsSMF1 (Oryza sativa, UniProt Q6ZLB0 1-436), and its binding signal came to 52000 fluorescence intensity (a.u.)

Here `TTATTATTATTGGATGGTTAGATGACAAATCCAACCTCACCGGAGTCACCTAGTGCAG` was tested on OsSMF1 (Oryza sativa, UniProt Q6ZLB0 1-436), and its binding signal came to 3640 fluorescence intensity (a.u.)
